- system-name: human type 1 glycine transporter (GlyT1) (Homo sapiens, UniProt P48067)
- Construct: T98G cells (glioma cells) expressing human type 1 glycine transporter (GlyT1) were used; endogenous in cells; host or cells: T98G cells (human glioma cells)
- Sequence (P48067 1-706): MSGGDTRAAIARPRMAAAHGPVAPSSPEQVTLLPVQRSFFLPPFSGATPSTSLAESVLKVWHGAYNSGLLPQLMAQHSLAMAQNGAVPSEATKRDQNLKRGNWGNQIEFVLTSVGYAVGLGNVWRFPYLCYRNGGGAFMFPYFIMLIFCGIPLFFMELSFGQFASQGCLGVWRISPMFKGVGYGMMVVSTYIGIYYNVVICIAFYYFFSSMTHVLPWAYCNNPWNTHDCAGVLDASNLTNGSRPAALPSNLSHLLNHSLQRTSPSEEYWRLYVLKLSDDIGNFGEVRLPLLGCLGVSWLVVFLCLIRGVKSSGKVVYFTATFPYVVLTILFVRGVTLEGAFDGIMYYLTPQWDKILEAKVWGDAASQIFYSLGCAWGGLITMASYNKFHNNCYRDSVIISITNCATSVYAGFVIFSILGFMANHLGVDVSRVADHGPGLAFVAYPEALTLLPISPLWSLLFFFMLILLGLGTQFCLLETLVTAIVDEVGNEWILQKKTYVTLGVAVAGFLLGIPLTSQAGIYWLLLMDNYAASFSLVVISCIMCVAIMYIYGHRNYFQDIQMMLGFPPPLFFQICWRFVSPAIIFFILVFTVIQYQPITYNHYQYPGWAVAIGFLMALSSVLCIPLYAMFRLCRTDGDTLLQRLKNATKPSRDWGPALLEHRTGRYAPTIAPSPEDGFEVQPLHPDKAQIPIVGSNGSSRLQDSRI
- test-name: Glycine uptake inhibition experiment ([3H] glycine uptake in T98G cells expressing GlyT1)
- Format: cell-based
- recorded-conditions: glycine uptake inhibition
pIC50: −log10 of the molar value.
parameter-measured: pIC50

>>> value_observed("CC(O)c1cccc2c1C(F)(F)C(=O)N2Cc1ccnc(C#N)c1 (stereo not shown)")
7.01
>>> value_observed("Cc1nc(CN2C(=O)C(F)(F)c3c([C@H](C)O)cccc32)oc1C")
6.89
>>> value_observed("C[C@H](O)c1cccc2c1C(F)(F)C(=O)N2Cc1cnc2ccccc2n1")
7.52
>>> value_observed("CC(O)c1cccc2c1C(F)(F)C(=O)N2Cc1cncc(Cl)c1 (single isomer, unassigned) [Compound 6]")
5.43

---

- system-name: human type 1 glycine transporter (GlyT1) (Homo sapiens, UniProt P48067)
- Construct: T98G cells (glioma cells) expressing human type 1 glycine transporter (GlyT1) were used; endogenous in cells; host or cells: T98G cells (human glioma cells)
- test-name: Glycine uptake inhibition experiment ([3H] glycine uptake in T98G cells expressing GlyT1)
- Assay type: cell-based
- recorded-conditions: glycine uptake inhibition
pIC50: −log10 of the molar value.
Measured pIC50, listed per entry for reference.
parameter-measured: pIC50

>>> value_observed("N#Cc1cc(CN2C(=O)C(F)(F)c3c(C(O)C(F)F)cccc32)ccn1 (single isomer, unassigned) [Compound 109]")
7.06
>>> value_observed("N#Cc1cccc(CN2C(=O)C(F)(F)c3c(C(O)C(F)(F)F)cccc32)n1 (centres unmarked) [Compound 13]")
7.02
>>> value_observed("O=C1N(Cc2cncc(Cl)c2)c2cccc(C(O)C(F)F)c2C1(F)F (single isomer, unassigned)")
7.24
>>> value_observed("C[C@H](O)c1cccc2c1C(F)(F)C(=O)N2Cc1nc2ccccc2s1")
7.43
>>> value_observed("C[C@H](O)c1cccc2c1C(F)(F)C(=O)N2Cc1ccc(F)nc1")
7.28
>>> value_observed("C[C@@H](O)c1cccc2c1C(F)(F)C(=O)N2Cc1nc2ccccc2c(=O)n1C")
6.21
>>> value_observed("N#Cc1cccc(CN2C(=O)C(F)(F)c3c(C(O)C(F)(F)F)cccc32)n1 (single isomer, unassigned) [Compound 18]")
5.48
>>> value_observed("N#Cc1cc(CN2C(=O)C(F)(F)c3c(C(O)C(F)(F)F)cccc32)ccn1 (single isomer, unassigned) [Compound 21]")
7.15
>>> value_observed("C[C@H](O)c1cccc2c1C(F)(F)C(=O)N2Cc1cncc(C(F)F)c1")
6.96
>>> value_observed("C[C@H](O)c1cccc2c1C(F)(F)C(=O)N2Cc1ccc(F)cn1")
7.21
>>> value_observed("O=C1N(Cc2cncc(Cl)c2)c2cccc(C(O)C(F)(F)F)c2C1(F)F (centres unmarked) [Compound 17]")
7.14
>>> value_observed("CC(c1cccc(Cl)n1)N1C(=O)C(F)(F)c2c([C@H](C)O)cccc21 (single isomer, unassigned) [Compound 52]")
6.48
>>> value_observed("C[C@H](O)c1cccc2c1C(F)(F)C(=O)N2Cc1ccc2ccccc2n1")
7.43
>>> value_observed("O=C1N(Cc2cccc(Cl)n2)c2cccc(C3(O)CCC3)c2C1(F)F")
5.23
>>> value_observed("CC(O)c1cccc2c1C(F)(F)C(=O)N2Cc1nc2ccccc2c(=O)n1C (centres unmarked)")
7.27
>>> value_observed("COc1cccc(CN2C(=O)C(F)(F)c3c([C@H](C)O)cccc32)n1")
7.12
>>> value_observed("C[C@H](O)c1cccc2c1C(F)(F)C(=O)N2Cc1ccc2cc[nH]c2n1")
7.01
>>> value_observed("O=C1N(Cc2ccnc(Cl)c2)c2cccc([C@H](O)C(F)(F)F)c2C1(F)F")
6.46
>>> value_observed("C[C@H](O)c1cccc2c1C(F)(F)C(=O)N2Cc1cc(Cl)ccn1")
7.74
>>> value_observed("O=C1N(Cc2cncc(Cl)c2)c2ccc(F)c(C(O)C(F)(F)F)c2C1(F)F (single isomer, unassigned) [Compound 49]")
5.82
>>> value_observed("C[C@H](O)c1cccc2c1C(F)(F)C(=O)N2Cc1cccc(Cl)c1")
8.66
>>> value_observed("O=C1N(Cc2ccnc(C(F)F)c2)c2cccc(C(O)C(F)F)c2C1(F)F (single isomer, unassigned)")
7.06
>>> value_observed("C[C@H](O)c1cccc2c1C(F)(F)C(=O)N2Cc1ccc(C(F)F)cn1")
6.03
>>> value_observed("C[C@H](O)c1cccc2c1C(F)(F)C(=O)N2Cc1cncc(C(F)(F)F)c1")
7.41
>>> value_observed("COc1ccc(CN2C(=O)C(F)(F)c3c([C@H](C)O)cccc32)nc1")
6.09
>>> value_observed("C[C@H](O)c1cccc2c1C(F)(F)C(=O)N2Cc1ccnc(-n2cncn2)c1")
7.35
>>> value_observed("O=C1N(Cc2ccc(F)nc2)c2cccc([C@@H](O)C(F)(F)F)c2C1(F)F")
6.74
>>> value_observed("CC(C)(O)c1cccc2c1C(F)(F)C(=O)N2Cc1cccc(Cl)n1")
6.15
>>> value_observed("COc1cccc(CN2C(=O)C(F)(F)c3c([C@H](C)O)cccc32)c1")
7.74
>>> value_observed("C[C@H](O)c1cccc2c1C(F)(F)C(=O)N2Cc1cccc(-n2cncn2)n1")
6.64
>>> value_observed("C[C@H](O)c1cccc2c1C(F)(F)C(=O)N2Cc1noc2ccccc12")
7.11
>>> value_observed("C[C@H](O)c1cccc2c1C(F)(F)C(=O)N2Cc1cc2ccccc2c(=O)[nH]1")
7.32
